Entries and their measured melting point follow.

Known melting point results, listed for orientation:
{"columns": ["COMPOUND", "melting point"],
 "data": [
  ["COC(=O)C(C(C)C)N(C)S(=O)(=O)c1ccc(-c2ccc([N+](=O)[O-])cc2)cc1 (centres undefined)", "117 to 118 °C"],
  ["Cc1cc(-c2cnn3c(C(F)(F)F)cc(-c4ccc(C(F)(F)F)cc4)nc23)ccn1", "243 °C"],
  ["O=C1Nc2ccc(-c3cccc(Cl)c3)cc2C12OCCCO2", "242 to 244 °C"]
]}

What value of measured melting point is listed for COC(=O)CCSc1ccc(C=C(C)c2ccc3c(c2)C(C)(C)CCC3(C)C)cc1 ?
90 to 92 °C

What value of measured melting point is listed for CCOC1Oc2ccc3cc(C#N)c(Cn4cncn4)cc3c2C1(C)C (centres undefined) ?
128 to 129 °C

What value of measured melting point is listed for CCn1cc(C(=O)O)c(=O)c2cc(F)c(N3CC4CCC3CN4)c(F)c21 (centres undefined) ?
255 to 257 °C

What value of measured melting point is listed for COC(=O)C1(C(F)(F)CCCCOc2ccc(Cl)cc2)CO1 (centres undefined) ?
40 to 48 °C

What value of measured melting point is listed for CCN(CC)Cc1cccc(OCCCNc2nc(N)nn2C)c1 ?
68 to 69 °C

What value of measured melting point is listed for CCCCCCCCCCCCCCCCCCOc1cc(OCCCOc2ccc(S(C)(=O)=O)cc2)cc(N(CC(=O)OC)CC(=O)OC)c1 ?
70 to 72 °C

What value of measured melting point is listed for CN1CCC(N(CCN2CCCC2)C(=O)c2ccc(Nc3nccc(Nc4ccc(C(F)(F)F)cc4)n3)cc2)CC1 ?
115 to 120 °C

What value of measured melting point is listed for CCn1nc(C#N)c(Nc2ccc(Cl)cc2[N+](=O)[O-])n1 ?
130 to 132 °C

What value of measured melting point is listed for OC(c1ccc2c(c1)CCN2Cc1ccccc1)(C(F)(F)F)C(F)(F)F ?
85 to 90 °C

What value of measured melting point is listed for CCCCn1c(C)c(Br)c(=O)c(C(=O)Nc2ccc(Br)cc2C)c1C ?
190 to 192 °C

====

Entries and their measured melting point follow.

Known melting point results, listed for orientation:
{"columns": ["COMPOUND", "RESULT"],
 "data": [
  ["COc1ccc(/C=C/S(=O)(=O)CS(=O)(=O)/C=C/c2ccc(OC)c(O)c2)cc1N", "148 to 150 °C"],
  ["O=C(O)C1Cc2ccccc2N1C(=O)CCSSCCC(=O)N1c2ccccc2CC1C(=O)O (stereo not drawn)", "213 to 216 °C"],
  ["COc1ccc(CN2C(=O)C(C)(c3cc(NC(N)=O)ccc3Cl)c3cc(Cl)ccc32)c(OC)c1 (stereo not drawn)", "254 °C"],
  ["CC(=O)Nc1c(OC(C)=O)cc(C)cc1[N+](=O)[O-]", "163 to 165 °C"]
]}

What value of measured melting point is listed for O=C1OC(O)c2c(Cl)cccc21 (stereo not drawn) ?
120 to 122 °C

What value of measured melting point is listed for COC(=O)c1cc(CCCNCc2ccccc2)ccc1OCc1ccccc1 ?
75 to 77 °C

What value of measured melting point is listed for COc1cc(CO)ccc1OCc1cn(-c2ccccn2)nc1C ?
135 to 136 °C

What value of measured melting point is listed for Cc1nn(-c2ccccc2)c(O)c1-c1c(C)nn(-c2ccccc2)c1O ?
> 280 °C

What value of measured melting point is listed for C=C1C=CC2CC1C(Cc1ccc(OC)cc1)NC2=O (stereo not drawn) ?
132 to 133 °C

What value of measured melting point is listed for CC(=O)NS(=O)(=O)c1ccc(N2CCN(CC[C@@H]3OCCc4ccccc43)CC2)cc1 ?
160 to 161 °C

What value of measured melting point is listed for C#Cc1ccc(N)nc1 ?
143 °C

These measurements were taken from a melting point compilation (Tetko et al.; mined from patent text by program, amines drawn as free bases though some values may be those of a salt).
